// data source = patent US10494415B2

# Kinetics koff annotations
target: IGF2 (Homo sapiens, UniProt P01344); test: SPR (Biacore T200) of recombinant IGF2R domain 11 mutants on immobilised biotinylated IGF2; assay type: binding; parameters: purchased GroPep; settings: Table 3; 25° C., HBS-EP pH 7.4
Sequence (P01344 25-91): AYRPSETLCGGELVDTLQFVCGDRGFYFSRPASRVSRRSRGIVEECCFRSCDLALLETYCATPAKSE
Entry format: amount then unit.

# MOLECULE, Kinetics koff
data = [
    ("AB5 P1597L: domain 11 AB5 + P1597L (protein) MKSNEHDDCQVTNPSTGHLFDLSSLSGRAGFTAAYAKGWGVYMSICGENENCPPGVGACFGQTRISVGKANKRLRYVDQVLQLVYKDGSLCPSKSGLSYKSVISFVCRPEAGPTNRPMLISLDKQTCTLFFSWHTPLACEQATECSV", "0.0150 s⁻¹"),
    ("AB5 P1597N: domain 11 AB5 + P1597N (protein) MKSNEHDDCQVTNPSTGHLFDLSSLSGRAGFTAAYAKGWGVYMSICGENENCPPGVGACFGQTRISVGKANKRLRYVDQVLQLVYKDGSNCPSKSGLSYKSVISFVCRPEAGPTNRPMLISLDKQTCTLFFSWHTPLACEQATECSV", "0.0180 s⁻¹"),
    ("AB5 HI^23D: domain 11 AB5 + HI loop of clone 23D (HFQS) (protein) MKSNEHDDCQVTNPSTGHLFDLSSLSGRAGFTAAYAKGWGVYMSICGENENCPPGVGACFGQTRISVGKANKRLRYVDQVLQLVYKDGSPCPSKSGLSYKSVISFVCRPEAGPTNRPMLISLHFQSCTLFFSWHTPLACEQATECSV", "0.012 s⁻¹"),
]

Prompt: Which Kinetics koff is reported for this molecule? AB5 Q1569R P1597H G1603K: domain 11 AB5 + Q1569R, P1597H, G1603K (protein) MKSNEHDDCQVTNPSTGHLFDLSSLSGRAGFTAAYAKGWGVYMSICGENENCPPGVGACFGRTRISVGKANKRLRYVDQVLQLVYKDGSHCPSKSKLSYKSVISFVCRPEAGPTNRPMLISLDKQTCTLFFSWHTPLACEQATECSV
Completion: 0.0058 s⁻¹
